test system: DU-145; assay: Cytotoxicity against human DU-145 cells incubated for 72 hrs by resazurin staining based microplate reader assay; type: functional
measurement kind: LD99 (µM)

# compound structure, measurement kind, result modifier, recorded measurement
rows = [
    ("COC(=O)c1oc(=O)c2c(O)c3c(O)c(C(C)=O)oc3cc2c1O", "LD99", ">", 100),
    ("COC(=O)c1oc(=O)c2c(O)c(C(=O)O)c(O)cc2c1O", "LD99", ">", 100),
    ("CN[C@@H]1C[C@H]2O[C@@](C)([C@@H]1OC)n1c3ccccc3c3c4c(c5c6ccccc6n2c5c31)C(=O)NC4", "LD99", "=", 3.4),
    ("CCCCCCC/C=C/C1=CC(=O)[C@]2(O1)C(=O)N[C@@](C)(O)[C@H]2O", "LD99", "=", 39),
]

* * *

# LD99 per entry
test system: Giardia intestinalis; experiment: Anti-protozoal activity against Giardia duodenalis 713 assessed as inhibition of protozoal growth measured after 72 hrs under anaerobic conditions; assay type: functional
measurement kind: LD99 (µM)

# compound structure, result modifier, recorded measurement
records = [
    ("CCCCCCC/C=C/C1=CC(=O)[C@]2(O1)C(=O)N[C@@](C)(O)[C@H]2O", "=", 39),
    ("COC(=O)c1oc(=O)c2c(O)c3c(O)c(C(C)=O)oc3cc2c1O", "=", 37),
    ("Cc1ncc([N+](=O)[O-])n1CCO", "=", 9.1),
    ("COC(=O)c1oc(=O)c2c(O)c(C(=O)O)c(O)cc2c1O", ">", 100),
]
